Value source: patent US20230331803A1

The entries below come with measured T½ values attached.
- assay-info: Pharmacokinetic studies in Beagle dogs after oral administration of SNAC-based tablets
- Assay type: in vivo
- condition-info: dogs, oral administration (tablet)
Starred links: 1 amine or outer side, 2 acyl side, 3 side chain; linkers in the order of their positions; H or OH if unused. Non-standard residues stand in square brackets, D forms with d. Groups on a side chain read outwards from the residue. *: point of attachment. C20 diacid = O=C(O)CCCCCCCCCCCCCCCCCCC(=O)*; γGlu = O=C(O)[C@H](CCC(=O)[*:2])N[*:1]; εLys = N[C@@H](CCCCN[*:1])C(=O)[*:2]; AEEA = NCCOCCOCC(=O)O; Aib = CC(C)(N)C(=O)O
Lab book: enter the figure in h, no units written.

HWEGTFTSDVSSYLEEQAAR-K([2-[2-[2-[[2-[2-[2-[[(4S)-4-Carboxy-4-[[4-[(19-Carboxynonadecanoylamino)Methyl]Cyclohexanecarbonyl]Amino]Butanoyl]Amino]Ethoxy]Ethoxy]Acetyl]Amino]Ethoxy]Ethoxy]Acetyl])-FIEWLVR … (peptide) peptide: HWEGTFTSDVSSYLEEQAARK([AEEA-AEEA-γGlu-4‑(aminomethyl)cyclohexanecarbonyl-C20 diacid])FIEWLVRGRGEGGGGGASELSTAALGRLSAELHELATLPRTETGSGSP-NH2; 40
H-Aib-EGTFTSDVS-K([2-[2-[2-[[2-[2-[2-[[(4S)-4-Carboxy-4-[[4-[(19-Carboxynonadecanoylamino)Methyl]Cyclohexanecarbonyl]Amino]Butanoyl]Amino]Ethoxy]Ethoxy]Acetyl]Amino]Ethoxy]Ethoxy]Acetyl])-YLEEQAAREFIA … (peptide) peptide: H-H[Aib]EGTFTSDVSK([AEEA-AEEA-γGlu-4‑(aminomethyl)cyclohexanecarbonyl-C20 diacid])YLEEQAAREFIAWLVRGRGGGGGEASELSTAALGRLSAELHELATLPRTETGSGSP-NH2; 27
H-Aib-EGTFTSDVSSYLEEQAAREFIAWLVRGR-K([(2S)-2-Amino-6-[[2-[2-[2-[[2-[2-[2-[[(4S)-4-Carboxy-4-[[4-[(19-Carboxynonadecanoylamino)Methyl]Cyclohexanecarbonyl]Amino]Butanoyl]Amino]Ethoxy]Ethoxy]Acetyl]Amino … (peptide) peptide: H[Aib]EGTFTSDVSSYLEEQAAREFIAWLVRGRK([εLys-AEEA-AEEA-γGlu-4‑(aminomethyl)cyclohexanecarbonyl-C20 diacid])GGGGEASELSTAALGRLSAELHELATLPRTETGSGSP-NH2; 23

Tell me the measured T½ of H-Aib-EGTFTSDVSSYLEEQAAREFIAWLVRGRP-K([2-[2-[2-[[2-[2-[2-[[(4S)-4-Carboxy-4-[[4-[(19-Carboxynonadecanoylamino)Methyl]Cyclohexanecarbonyl]Amino]Butanoyl]Amino]Ethoxy]Ethoxy]Acetyl]Amino]Ethoxy]Ethoxy]A … (peptide) peptide: H[Aib]EGTFTSDVSSYLEEQAAREFIAWLVRGRPK([AEEA-AEEA-γGlu-4‑(aminomethyl)cyclohexanecarbonyl-C20 diacid])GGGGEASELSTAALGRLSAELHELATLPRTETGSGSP-NH2 , please.
25
